IC50 values, listed per item
target: electric eel acetylcholinesterase (EeAChE) (Electrophorus electricus)
Sequence (O42275 24-633): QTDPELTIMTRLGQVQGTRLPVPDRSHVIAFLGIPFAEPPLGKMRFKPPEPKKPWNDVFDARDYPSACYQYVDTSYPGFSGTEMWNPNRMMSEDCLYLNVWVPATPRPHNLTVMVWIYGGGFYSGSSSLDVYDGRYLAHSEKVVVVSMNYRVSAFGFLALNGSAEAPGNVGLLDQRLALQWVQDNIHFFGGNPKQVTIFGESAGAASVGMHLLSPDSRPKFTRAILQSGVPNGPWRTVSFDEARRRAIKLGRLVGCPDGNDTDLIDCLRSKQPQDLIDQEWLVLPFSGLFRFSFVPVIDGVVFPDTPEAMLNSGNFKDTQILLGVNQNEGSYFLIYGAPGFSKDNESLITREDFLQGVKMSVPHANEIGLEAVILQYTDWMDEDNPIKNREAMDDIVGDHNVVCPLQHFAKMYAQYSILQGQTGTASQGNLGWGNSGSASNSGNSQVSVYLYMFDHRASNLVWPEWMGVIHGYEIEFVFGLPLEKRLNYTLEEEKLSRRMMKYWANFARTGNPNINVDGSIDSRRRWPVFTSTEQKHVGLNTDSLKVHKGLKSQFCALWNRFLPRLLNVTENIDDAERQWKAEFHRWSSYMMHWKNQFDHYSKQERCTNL
measurement.name: IC50 (µM)

compound	subject.of.test	measurement.name	recorded.result
c1ccc(CN2CCN(CCCCCCNc3nc(-c4ccccc4)n(-c4ccccc4)n3)CC2)cc1 [Compound 13d]	electric eel acetylcholinesterase (EeAChE) (Electrophorus electricus)	IC50	5.22
c1ccc(CN2CCN(CCCCNc3nc(-c4ccccc4)n(-c4ccccc4)n3)CC2)cc1 [Compound 13b]	electric eel acetylcholinesterase (EeAChE) (Electrophorus electricus)	IC50	3.79
c1ccc(CN2CCN(CCCCCNc3nc(-c4ccccc4)n(-c4ccccc4)n3)CC2)cc1 [Compound 13c]	electric eel acetylcholinesterase (EeAChE) (Electrophorus electricus)	IC50	11
